Numbers sourced from patent US10689377B2.

Attribute: IC50
measurement target: KRas G12C (Homo sapiens, UniProt P01116, G12C)
run description: Cellular inhibition of KRas G12C measured by Phospho-ERK in NCI-H358 cells
Format: cell-based
measurement parameters: pERK(Thr202/Tyr204) normalized with GAPDH, NCI-H358 cells, 3 hours; read-out: IC50

// solved cases for IC50 follow
| compound | measurement target | IC50 |
| --- | --- | --- |
| C=CC(=O)N1CC2(C1)CN(c1ncnc3c1CC(=O)N(c1cc(O)cc4ccccc14)C3)C2 | KRas G12C (Homo sapiens, UniProt P01116, G12C) | > 1 µM |
| C=CC(=O)N1CCN(c2nc(OC[C@@H]3CCCN3C)nc3c2CCN(c2cncc4ccccc24)C3)CC1CC#N (some centres unmarked) [Example 291] | KRas G12C (Homo sapiens, UniProt P01116, G12C) | 0.0001 to 1 µM |
| C=C(F)C(=O)N1CCN(c2nc(OC[C@@H]3CC(F)(F)CN3C)nc3c2CCN(c2cccc4cccc(C)c24)C3)C[C@@H]1CC#N | KRas G12C (Homo sapiens, UniProt P01116, G12C) | 0.0001 to 1 µM |
| C=C(F)C(=O)N1CCN(c2nc(OC[C@@H]3CCCN3C)nc3c2CCN(c2cccc4cccc(C5CC5)c24)C3)C[C@@H]1CC#N | KRas G12C (Homo sapiens, UniProt P01116, G12C) | > 1 µM |
| C=CC(=O)N1CCN(c2nc(OC[C@@H]3CCCN3CCOC)nc3c2CCN(c2cc(O)cc4ccccc24)C3)CC1 | KRas G12C (Homo sapiens, UniProt P01116, G12C) | 0.0001 to 1 µM |

Could you share which IC50 value was measured for C=CC(=O)N1CCN(c2nc(OC[C@@H]3CCCN3C)nc3c2CCN(c2cc(F)ccc2OC(F)(F)F)C3)CC1CC#N (some centres unmarked) ? 0.0001 to 1 µM

# IC50 lookup, item C=CC(=O)N1CCN(c2nc(OC[C@@H]3CCCN3C)nc3c2CCN(c2ccc(F)cc2C(F)(F)F)C3)CC1CC#N (some centres unmarked) [Example 413] 0.0001 to 1 µM

Look at this compound and give its reported IC50. C=CC(=O)N1CCN(c2nc(OC[C@@H]3CCCN3C)nc3c2CCN(c2c(F)cccc2C(F)(F)F)C3)CC1CC#N (some centres unmarked) [Example 275] 0.0001 to 1 µM

IC50 lookup needed for C=CC(=O)N1CCN(c2nc(OCCCN3CCOCC3)nc3c2CCN(c2cc(O)cc4sc(C)nc24)C3)CC1 , thanks. > 1 µM

Item under review: C=CC(=O)N1CCN(c2nc(OCCCCN(C)C)nc3c2CCN(c2cc(O)cc4ccccc24)C3)CC1 . Reported IC50? 0.0001 to 1 µM

So what does the record say about IC50 for C=CC(=O)N1CCN(c2nc(OC[C@@H]3C[C@@H](F)CN3C(C)C)nc3c2CCN(c2cncc(F)c2C(F)(F)F)C3)C[C@@H]1CC#N ? 0.0001 to 1 µM

Would you kindly share the measured IC50 for C=CC(=O)N1CCN(c2nc(OC[C@@H]3CCN(C)C3)nc3c2CCN(c2c(C(F)(F)F)ccc4[nH]ncc24)C3)CC1CC#N (some centres unmarked) ? 0.0001 to 1 µM

Please report the recorded IC50 for C=C(F)C(=O)N1CCN(c2nc(OC[C@@H]3CCCN3C)nc3c2CCN(c2cccc4cccc(Br)c24)C3)C[C@@H]1CC#N . 0.0001 to 1 µM

Suppose we examine the compound C=CC(=O)N1CCN(c2nc(OC[C@@H]3CCCN3C)nc3c2CCN(c2cccc4c(F)cccc24)C3)CC1CC#N (some centres unmarked) [Example 287] ; what IC50 value has been reported? 0.0001 to 1 µM

====

measurement target: KRas G12C (Homo sapiens, UniProt P01116, C118S/C51S/C80L/G12C)
run description: KRas G12C Modification Assay (LCMS detection of covalent adduct)
Type: binding
measurement parameters: normalized percent of control; 5 μM concentration for 3 hours

| smi | POC |
| --- | --- |
| Cc1cccc2cccc(N3CCc4c(nc(OC[C@@H]5CCCN5C)nc4N4CCN(C(=O)/C=C/c5cccnc5)[C@@H](CC#N)C4)C3)c12 | C (“C”>50% POC) |
| C=C(F)C(=O)N1CCN(c2nc(OC[C@@H]3CC(F)(F)CN3C)nc3c2CCN(c2cccc4cccc(Cl)c24)C3)C[C@@H]1CC#N | C (“C”>50% POC) |
| Cc1cccc2cccc(N3CCc4c(nc(OC[C@@H]5CCN(C)C5)nc4N4CCN(C(=O)/C=C/CF)[C@@H](CC#N)C4)C3)c12 | C (“C”>50% POC) |

====

measurement target: KRas G12C (Homo sapiens, UniProt P01116, G12C)
run description: Cellular inhibition of KRas G12C measured by Phospho-ERK in NCI-H358 cells
Format: cell-based
measurement parameters: pERK(Thr202/Tyr204) normalized with GAPDH, NCI-H358 cells, 3 hours; read-out: IC50
As shown below, each of these molecules has a reported IC50 value.

| molecule | value observed |
| --- | --- |
| CN(C)C/C=C/C(=O)N1CCN(c2nc(OC[C@H]3CCCN3C)nc3c2CCN(c2cccc(Cl)c2C(F)(F)F)C3)C[C@@H]1CC#N [Example 423] | 0.1 to 1000 nM |

Any idea what IC50 came out for C=CC(=O)N1CCN(c2nc(OCCN3CCN(C(C)=O)CC3)nc3c2CCN(c2cc(O)cc4ccccc24)C3)CC1 [Example 37] on KRas G12C (Homo sapiens, UniProt P01116, G12C)? > 1000 nM

Which measured IC50 belongs to C=CC(=O)N1CCN(c2nc(OC3CCN(C)CC3)nc3c2CCN(c2cc(O)cc4ccccc24)C3)CC1 [Example 22] , tested on KRas G12C (Homo sapiens, UniProt P01116, G12C)? > 1000 nM

API: value(readout=IC50, system=KRas G12C (Homo sapiens, UniProt P01116, G12C)) for record C=CC(=O)N1CCN(c2nc(OC[C@@H]3CCCN3CCO)nc3c2CCN(c2cccc4ccccc24)C3)C[C@@H]1CC#N [Example 341] 0.1 to 1000 nM

For KRas G12C (Homo sapiens, UniProt P01116, G12C), provide IC50 of C=CC(=O)N1CCN(c2nc(OC[C@@H]3CCN(C)C3)nc3c2CCN(c2cccc4ccccc24)C3)CC1CC#N (some centres unmarked) [Example 177] please. 0.1 to 1000 nM

Entry C=CC(=O)N1CCN(c2ncnc3c2CCN(C(CO)c2ccccc2)C3)CC1 (centres unmarked) [Example 71] , system KRas G12C (Homo sapiens, UniProt P01116, G12C): what IC50 was measured? > 1000 nM

Please provide the recorded IC50 for C=CC(=O)N1CCN(c2nc(OC[C@H]3CN(C)CCO3)nc3c2CCN(c2cccc4ccccc24)C3)C[C@@H]1CC#N [Example 450] , tested on KRas G12C (Homo sapiens, UniProt P01116, G12C). 0.1 to 1000 nM

For the record CN1CCC[C@H]1COc1nc2c(c(N3CCN(C(=O)/C=C/C(F)F)[C@@H](CC#N)C3)n1)CCN(c1cccc3cccc(Cl)c13)C2 [Example 484] , what value of IC50 is listed for KRas G12C (Homo sapiens, UniProt P01116, G12C)? 0.1 to 1000 nM

====

measurement target: KRas G12C (Homo sapiens, UniProt P01116, G12C)
run description: Cellular inhibition of KRas G12C measured by Phospho-ERK in NCI-H358 cells
Format: cell-based
measurement parameters: pERK(Thr202/Tyr204) normalized with GAPDH, NCI-H358 cells, 3 hours; read-out: IC50
pIC50: −log10 of the molar value.
The entries below are paired with their reported pIC50.

Example cases with answers are listed next.
| compound | measurement target | attribute measured | value observed |
| --- | --- | --- | --- |
| C=CC(=O)N1CCN(c2nc(OCCCN3CCOCC3)nc3c2CCN(c2c(C)ccc4[nH]ncc24)C3)CC1 | KRas G12C (Homo sapiens, UniProt P01116, G12C) | pIC50 | < 6.00 |
| C=CC(=O)N1CCN(c2nc(OC[C@H]3CN(C)CCO3)nc3c2CCN(c2cccc4ccccc24)C3)CC1CC#N (some centres unmarked) [Example 270] | KRas G12C (Homo sapiens, UniProt P01116, G12C) | pIC50 | 6.00 to 10.00 |
| C=CC(=O)N1CCN(c2nc(OC[C@@H]3CCN(C)C3)nc3c2CCN(c2ccccc2C(F)(F)F)C3)CC1CC#N (some centres unmarked) [Example 298] | KRas G12C (Homo sapiens, UniProt P01116, G12C) | pIC50 | 6.00 to 10.00 |
| C=CC(=O)N1CCN(c2nc(O[C@H](C)CN(C)C)nc3c2CCN(c2cc(O)ccc2OC(F)(F)F)C3)CC1 | KRas G12C (Homo sapiens, UniProt P01116, G12C) | pIC50 | < 6.00 |

Suppose we examine the compound C=C(F)C(=O)N1CCN(c2nc(OC[C@@H]3CC(F)(F)CN3C)nc3c2CCN(c2cccc4cccc(Cl)c24)C3)C[C@@H]1CC#N ; what pIC50 value has been reported? 6.00 to 10.00

What value of measured pIC50 is listed for C=CC(=O)N1CCN(c2nc(OC[C@@H]3CCCN3C)nc3c2CCN(c2c(OC)ccc4[nH]ncc24)C3)CC1 ? < 6.00

For C=CC(=O)N1CCN(c2nc(O[C@H](C)CN(C)CC)nc3c2CCN(c2cc(O)cc4ccccc24)C3)CC1 , what is its reported pIC50? 6.00 to 10.00
